These entries and their values trace back to ChEMBL document CHEMBL3988442.

- Tested on: Wolbachia pipientis
- Experiment Summary: Anti-Wolbachia Cell-Based Screen
- Assay type: functional
- Design: scale not given: in the data most compounds retested in dose-response had high values
- Setup Conditions: 5 µM
The whole screen tested about 48,000 compounds, of which about 13,000 (27%) showed an effect of 50% or more. This is one part of the list.
Measured Property: Percent Effect (%)

Compound: Cc1n[nH]c(C)c1CCC(=O)N(C)Cc1cn[nH]c1-c1ccc(F)cc1
Measured Property: Percent Effect
Result: 62.4
//
Compound: CCn1cnnc1CNC(=O)N1CCN(c2nccs2)CC1
Measured Property: Percent Effect
Result: 84.21
//
Compound: Cn1cccc1C(=O)NCc1cn2c(n1)CN(CC1CCOC1)CC2 (configuration not stated)
Measured Property: Percent Effect
Result: -25.14
//
Compound: CCn1cnnc1CNC(=O)NCC(C(C)C)N1CCC(C)CC1 (configuration not stated)
Measured Property: Percent Effect
Result: -9.877
//
Compound: COC(C)c1noc(CN(C)c2ncc(Br)cn2)n1 (configuration not stated)
Measured Property: Percent Effect
Result: 13.56
//
Compound: CCn1cnnc1CNC(=O)N1CCN(Cc2ccsc2)CC1
Measured Property: Percent Effect
Result: 120.4
//
Compound: CCn1cnnc1CNC(=O)N1CCN(c2cccs2)CC1
Measured Property: Percent Effect
Result: 0.168
//
Compound: Cc1n[nH]c(C)c1CCCN(C)Cc1c[nH]nc1-c1ccc(F)cc1
Measured Property: Percent Effect
Result: -0.8434
//
Compound: CCn1cnnc1CNC(=O)N1CCN(c2nc(C)c(C)s2)CC1
Measured Property: Percent Effect
Result: 1.256
//
Compound: COc1cc(NC(=O)NC(C2CC2)C2CC2)ccc1N1CCOC1=O
Measured Property: Percent Effect
Result: -4.711
//
Compound: CCn1cnnc1CNC(=O)N1CCN(CC(C)C)CC1
Measured Property: Percent Effect
Result: 151.2
//
Compound: CCCC(C)N(C)Cc1nnc(-c2ccc(Br)s2)o1 (configuration not stated)
Measured Property: Percent Effect
Result: -85.49
